Experiment: Cell cytotoxicity 50 assay (CC50), MB200 cells, cell titer glo
Type: cell-based
Details: human
RECORDED ENDPOINT: CC50 at 72 h

• CC(=O)NCCCC(=O)N(C)c1ccc(-c2nc3ccccc3s2)cc1 = > 10 µM
• O=C(CCCN1C(=O)CCC1=O)N[C@H]1C[C@@H](c2nc3ccccc3s2)C1 = > 10 µM
• CC(=O)NCCCNC(=O)c1ccc(-c2nc3cc(F)ccc3s2)cc1 = > 10 µM
• O=C(CCCN1CCCC1=O)NCc1ccc(-c2nc3ccccc3s2)cc1 = > 10 µM
• O=C(CCCc1cnco1)Nc1ccc(-c2nc3ccccc3s2)nc1 = > 10 µM

###

Assay: Cell cytotoxicity 50 assay (CC50), MB200 cells, cell titer glo
Format: cell-based
Settings: human
RECORDED ENDPOINT: CC50 at 72 h

* O=C(CCCN1C(=O)CCC1=O)Nc1nc2ccccc2s1 | > 10 µM
* O=C(CCCc1cccnc1)Nc1ccc(-c2nc3ccccc3s2)o1 | > 10 µM
* O=C(CCN1C(=O)CCC1=O)Nc1ccc(-c2nc3ccccc3s2)cn1 | > 10 µM
* O=C(CCCc1cccnc1)Nc1ccc(-c2nc3cc(F)ccc3s2)cc1 | > 10 µM
* CC(=O)NCCCC(=O)Nc1ccc(-c2nc3ccccc3s2)o1 | > 10 µM

###

Experiment: Cell cytotoxicity 50 assay (CC50), MB200 cells, cell titer glo
Type: cell-based
Details: human
List of CC50 at 72 h values.
RECORDED ENDPOINT: CC50 at 72 h

- CC(=O)NCCC(=O)Nc1ccc(-c2nc3cnccc3s2)cc1 [Compound 58]: > 10 µM
- O=C(CCN1C(=O)CCC1=O)Nc1ccc(-c2nc3ccccc3s2)o1 [Compound 24]: > 10 µM
- CC(=O)NCCCNC(=O)[C@@H]1CC[C@H](c2nc3ccccc3s2)C1 [Compound 165]: > 10 µM
- O=C(CCN1C(=O)CCC1=O)Nc1ccc(C(=O)c2nc3ccccc3s2)cc1 [Compound 69]: 1 to 10 µM
- CC(=O)NC1CC1C(=O)Nc1ccc(-c2nc3ccccc3s2)cc1 (stereo not drawn) [Compound 100]: > 10 µM
- CC(=O)N[C@H]1CC[C@@H](C(=O)Nc2nc3ccccc3s2)C1 [Compound 183]: > 10 µM
- CC(=O)NCCCC(=O)Nc1cc(Cl)cc(-c2nc3cc(F)ccc3s2)c1 [Compound 102]: > 10 µM
- O=C(CCN1CCCC1=O)Nc1ccc(-c2nc3ccccc3s2)cc1 [Compound 18]: > 10 µM
- O=C(CCCN1C(=O)CCC1=O)NC1CC(c2nc3ccccc3s2)C1 (stereo not drawn) [Compound 89]: > 10 µM

###

Experiment: Cell cytotoxicity 50 assay (CC50), HEK cells
Format: cell-based
Conditions: human
RECORDED ENDPOINT: CC50 at 72 h

- O=C(CCCc1cnco1)Nc1ccc(Cc2nc3ccccc3s2)cc1: > 10 µM
- CC(=O)NCCCc1nc(CCCC(=O)Nc2ccc(-c3nc4cc(F)ccc4s3)cc2)co1: 1 to 10 µM
- O=C(CCN1C(=O)CCC1=O)Nc1ccc(-c2nc3ccccc3s2)cc1: > 10 µM
- O=C(CCc1cccnc1)Nc1ccc(-c2nc3ccccc3s2)nc1: > 10 µM
- CC(=O)NCCCC(=O)N[C@H]1CC[C@H](c2nc3ccccc3s2)C1: > 10 µM
- Cc1ccc2nc(-c3ccc(NC(=O)C4CCC4)cc3)sc2c1: > 10 µM
- O=C(CCc1cccnc1)Nc1ccc(-c2nc3ccccc3s2)cc1: > 10 µM
- CN(C(=O)CCCN1C(=O)CCC1=O)c1ccc(-c2nc3ccccc3s2)cc1: 1 to 10 µM
- CC(=O)NCCCC(=O)Nc1ncc(-c2nc3ccccc3s2)o1: > 10 µM
